- measuredTarget: Taq DNA polymerase (UniProt P19821 P19821:1-832)
- Sequence (P19821 whole entry, one chain of several): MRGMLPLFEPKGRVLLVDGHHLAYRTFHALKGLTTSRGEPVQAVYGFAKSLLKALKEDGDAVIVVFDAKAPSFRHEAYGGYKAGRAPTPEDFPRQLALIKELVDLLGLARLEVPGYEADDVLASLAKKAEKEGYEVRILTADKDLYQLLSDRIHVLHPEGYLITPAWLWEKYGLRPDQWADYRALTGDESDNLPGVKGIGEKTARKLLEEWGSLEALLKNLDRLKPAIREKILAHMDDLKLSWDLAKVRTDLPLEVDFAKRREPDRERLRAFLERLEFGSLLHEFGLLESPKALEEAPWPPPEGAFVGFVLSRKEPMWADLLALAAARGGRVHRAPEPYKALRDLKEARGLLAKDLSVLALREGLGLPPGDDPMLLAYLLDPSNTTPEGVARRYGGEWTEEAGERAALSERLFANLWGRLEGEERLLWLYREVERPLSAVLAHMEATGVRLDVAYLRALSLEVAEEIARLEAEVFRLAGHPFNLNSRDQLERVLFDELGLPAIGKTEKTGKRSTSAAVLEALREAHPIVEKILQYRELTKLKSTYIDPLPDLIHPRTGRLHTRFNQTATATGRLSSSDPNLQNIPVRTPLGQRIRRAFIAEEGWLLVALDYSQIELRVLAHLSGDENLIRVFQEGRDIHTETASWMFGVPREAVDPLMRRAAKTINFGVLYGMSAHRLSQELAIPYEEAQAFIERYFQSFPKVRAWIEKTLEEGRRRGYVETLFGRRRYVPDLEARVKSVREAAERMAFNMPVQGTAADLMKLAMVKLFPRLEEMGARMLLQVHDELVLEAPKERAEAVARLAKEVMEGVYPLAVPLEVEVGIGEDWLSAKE
- assayProcedure: inhibition; room temperature 16 h, 12.5 nM Taq; 67 nM at 30 C 1 h; IT50 37 C
- runParameters: tags: rTaq, 94 kDa, Roche Molecular Systems / Perkin Elmer
readoutKind: IC50 (nM)
# unit: nM | format: bare number

Query string: Name the recorded IC50 for TQ21 (ssDNA) DNA: TTCTCGGTTGGTCTCTGGCGGAGCGATCATCTCAGAGCATTCTTAGCGTTTTGTTCTTGTGTATGATTCGCTTTTCCC .
Result string: 10
